Hello, the source for this data is ChEMBL document CHEMBL1135488, in case you need it.

The entries below come with measured fraction unbound values attached.
# procedure.details: in vitro
# Description: Unbound fraction (tissues)
measurement.label: fraction unbound

{"compound": "CN(C)CCCN1c2ccccc2Sc2ccc(Cl)cc21 [CHLORPROMAZINE]", "measurement.label": "fraction unbound", "experimental.value": 0.001}
{"compound": "CN/C(=N/CCSCc1nc[nH]c1C)NC#N [CIMETIDINE]", "measurement.label": "fraction unbound", "experimental.value": 0.374}
{"compound": "CN1CCN(C2=Nc3cc(Cl)ccc3Nc3ccccc32)CC1 [CLOZAPINE]", "measurement.label": "fraction unbound", "experimental.value": 0.004}
{"compound": "CC(C)NCC(O)COc1cccc2ccccc12 (stereo not drawn) [PROPRANOLOL]", "measurement.label": "fraction unbound", "experimental.value": 0.012}
{"compound": "Cc1cccc(C)c1OCC(C)N (stereo not drawn) [MEXILETINE]", "measurement.label": "fraction unbound", "experimental.value": 0.03}
{"compound": "C[C@]12C=CC(=O)C=C1CC[C@@H]1[C@@H]2[C@@H](O)C[C@@]2(C)[C@H]1CC[C@]2(O)C(=O)CO [PREDNISOLONE]", "measurement.label": "fraction unbound", "experimental.value": 0.021}
{"compound": "Cc1nc2n(c(=O)c1CCN1CCC(c3noc4cc(F)ccc34)CC1)CCCC2 [RISPERIDONE]", "measurement.label": "fraction unbound", "experimental.value": 0.042}
{"compound": "CNCCCN1c2ccccc2CCc2ccccc21 [DESIPRAMINE]", "measurement.label": "fraction unbound", "experimental.value": 0.003}
